Origin of the recorded values: ChEMBL document CHEMBL1141480

# assayProtocol: Metabolic stability in dog hepatocyte at 20 uM after 2 hrs assessed as recovery of parent compound
# Type: ADME, cell-based, Canis lupus familiaris
# testSettings: hepatocytes, read-out: Stability

compoundStructure	remaining at 2 h, 20 µM
CC(C)(F)C[C@H](N[C@@H](c1ccc(-c2ccc(S(C)(=O)=O)cc2)cc1)C(F)(F)F)C(=O)NC1(C#N)CC1	> 99%

----------
# measurementTarget: UniProtKB P53634
# Sequence (P53634 25-134 limits assumed): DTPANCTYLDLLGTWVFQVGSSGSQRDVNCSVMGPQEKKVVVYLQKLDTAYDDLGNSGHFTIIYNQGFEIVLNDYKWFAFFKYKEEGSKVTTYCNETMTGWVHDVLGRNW
# Sequence (P53634 231-394 limits assumed): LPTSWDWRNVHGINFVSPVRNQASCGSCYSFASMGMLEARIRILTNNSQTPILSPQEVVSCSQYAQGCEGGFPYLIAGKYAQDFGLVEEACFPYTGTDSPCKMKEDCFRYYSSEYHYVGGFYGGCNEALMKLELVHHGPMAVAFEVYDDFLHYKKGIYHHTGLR
# Sequence (P53634 395-463 limits assumed): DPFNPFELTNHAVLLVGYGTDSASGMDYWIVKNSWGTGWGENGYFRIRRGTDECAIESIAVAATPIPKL

compoundStructure	IC50
CC(C)(F)C[C@H](N[C@@H](c1ccc(-c2ccc(S(C)(=O)=O)cc2)cc1)C(F)(F)F)C(=O)NC1(C#N)CC1	> 10 µM

----------
# measurementTarget: Cathepsin F (Homo sapiens, UniProt Q9UBX1)
# Sequence (Q9UBX1 whole entry): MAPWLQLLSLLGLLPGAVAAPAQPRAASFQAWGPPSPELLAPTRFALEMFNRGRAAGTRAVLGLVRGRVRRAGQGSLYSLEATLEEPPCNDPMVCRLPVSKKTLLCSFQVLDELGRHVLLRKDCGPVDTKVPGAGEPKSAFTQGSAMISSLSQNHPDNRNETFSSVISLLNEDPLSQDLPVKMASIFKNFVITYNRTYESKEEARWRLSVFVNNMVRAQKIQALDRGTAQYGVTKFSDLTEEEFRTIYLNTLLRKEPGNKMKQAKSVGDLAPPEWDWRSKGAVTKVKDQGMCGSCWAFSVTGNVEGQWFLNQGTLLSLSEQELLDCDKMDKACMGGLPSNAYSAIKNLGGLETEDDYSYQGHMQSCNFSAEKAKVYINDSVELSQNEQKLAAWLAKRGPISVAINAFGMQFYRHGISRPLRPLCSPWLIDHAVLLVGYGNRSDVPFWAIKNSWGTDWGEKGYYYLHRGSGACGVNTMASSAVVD
pIC50: −log10 of the molar value.
propertyMeasured: pIC50

compound	experimentalResult
CC(C)(F)C[C@H](N[C@@H](c1ccc(-c2ccc(S(C)(=O)=O)cc2)cc1)C(F)(F)F)C(=O)NC1(C#N)CC1 [ODANACATIB]	6.10

----------
# measurementTarget: Cathepsin S (Homo sapiens)
# Sequence (P25774 whole entry): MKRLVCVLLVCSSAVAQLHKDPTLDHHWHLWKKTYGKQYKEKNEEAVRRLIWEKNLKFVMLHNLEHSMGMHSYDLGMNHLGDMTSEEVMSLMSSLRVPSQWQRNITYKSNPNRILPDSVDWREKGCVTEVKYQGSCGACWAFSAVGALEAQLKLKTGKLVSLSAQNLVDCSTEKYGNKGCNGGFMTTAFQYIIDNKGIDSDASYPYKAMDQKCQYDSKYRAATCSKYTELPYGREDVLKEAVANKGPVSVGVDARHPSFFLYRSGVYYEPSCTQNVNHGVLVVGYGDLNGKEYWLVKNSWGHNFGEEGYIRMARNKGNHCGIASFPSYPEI
# assayProtocol: Inhibition of cathepsin S
Below, each entry is listed alongside its reported IC50.

molecule	IC50
CC(C)C[C@H](N[C@@H](c1ccc(-c2ccc(S(C)(=O)=O)cc2)cc1)C(F)(F)F)C(=O)N[C@@H](C#N)Cc1ccccc1	2830 nM
CC(C)C[C@H](N[C@@H](c1ccc(-c2ccc(S(C)(=O)=O)cc2)cc1)C(F)(F)F)C(=O)N[C@@H](C)C#N	2240 nM
CC(C)C[C@H](N[C@@H](c1ccc(-c2ccc(S(C)(=O)=O)cc2)cc1)C(F)(F)F)C(=O)N[C@H](C#N)Cc1ccccc1	38 nM
CC(C)C[C@H](N[C@@H](c1ccc(-c2ccc(S(C)(=O)=O)cc2)cc1)C(F)(F)F)C(=O)NC(C)(C)C#N	2490 nM
CC(C)(F)C[C@H](N[C@@H](c1ccc(-c2ccc(S(C)(=O)=O)cc2)cc1)C(F)(F)F)C(=O)NC1(C#N)CC1	60 nM
CC(C)C[C@H](N[C@@H](c1ccc(-c2ccc(S(C)(=O)=O)cc2)cc1)C(F)(F)F)C(=O)NC(C#N)c1ccccc1 (mixture of isomers)	217 nM

----------
Below, each entry is listed alongside its reported IC50.
# measurementTarget: Cathepsin B (Homo sapiens, UniProt P07858)
# assayProtocol: Inhibition of cathepsin B

molecule	measurementUnits	boundSign	IC50
CC(C)(F)C[C@H](N[C@@H](c1ccc(-c2ccc(S(C)(=O)=O)cc2)cc1)C(F)(F)F)C(=O)NC1(C#N)CC1	µM	=	1.03
CC(C)C[C@H](N[C@@H](c1ccc(-c2ccc(S(C)(=O)=O)cc2)cc1)C(F)(F)F)C(=O)NC(C#N)c1ccccc1 (mixture of isomers)	µM	=	3.45
CC(C)C[C@H](N[C@@H](c1ccc(-c2ccc(S(C)(=O)=O)cc2)cc1)C(F)(F)F)C(=O)N[C@H](C#N)Cc1ccccc1	µM	=	0.953
CC(C)C[C@H](N[C@@H](c1ccc(-c2ccc(S(C)(=O)=O)cc2)cc1)C(F)(F)F)C(=O)NC(C)(C)C#N	µM	>	10
CC(C)C[C@H](N[C@@H](c1ccc(-c2ccc(S(C)(=O)=O)cc2)cc1)C(F)(F)F)C(=O)N[C@@H](C)C#N	µM	>	10
CC(C)C[C@H](N[C@@H](c1ccc(-c2ccc(S(C)(=O)=O)cc2)cc1)C(F)(F)F)C(=O)N[C@@H](C#N)Cc1ccccc1	µM	>	10

----------
# measurementTarget: UniProt P25774
# assayProtocol: Inhibition of cathepsin S in human ramos cells
# Format: cell-based
pIC50: −log10 of the molar value.
Below, each entry is listed alongside its reported pIC50.

molecule	pIC50
CC(C)(F)C[C@H](N[C@@H](c1ccc(-c2ccc(S(C)(=O)=O)cc2)cc1)C(F)(F)F)C(=O)NC1(C#N)CC1 [ODANACATIB]	7.35
CC(C)C[C@H](NC(=O)c1cc2ccccc2o1)C(=O)N[C@H]1CC[C@@H](C)N(S(=O)(=O)c2ccccn2)CC1=O [RELACATIB]	8.10

----------
# assayProtocol: Clearance in dog at 5 mg/kg, po
# Type: ADME, organism-based, Canis lupus familiaris
# Design: dose 5 mg/kg, route oral
# testSettings: in vivo

compoundStructure	CL/F
CC(C)(F)C[C@H](N[C@@H](c1ccc(-c2ccc(S(C)(=O)=O)cc2)cc1)C(F)(F)F)C(=O)NC1(C#N)CC1	0.13 mL/min/kg

----------
# measurementTarget: UniProt:P43235
# assayProtocol: Inhibition of humanized rabbit cathepsin K
IC50 under 0.6 nM gets Yes, anything at or over 0.6 nM gets No.

compound	classification
CC(C)C[C@H](N[C@@H](c1ccc(-c2ccc(S(C)(=O)=O)cc2)cc1)C(F)(F)F)C(=O)N[C@@H](C)C#N	No
CC(C)C[C@H](N[C@@H](c1ccc(-c2ccc(S(C)(=O)=O)cc2)cc1)C(F)(F)F)C(=O)NCC#N	Yes
CC(C)(F)C[C@H](N[C@@H](c1ccc(-c2ccc(S(C)(=O)=O)cc2)cc1)C(F)(F)F)C(=O)NC1(C#N)CC1 [ODANACATIB]	Yes
CC(C)C[C@H](N[C@@H](c1ccc(-c2ccc(S(C)(=O)=O)cc2)cc1)C(F)(F)F)C(=O)N[C@@H](C#N)Cc1ccccc1	No
CC(C)C[C@H](N[C@@H](c1ccc(-c2ccc(S(C)(=O)=O)cc2)cc1)C(F)(F)F)C(=O)NC(C)(C)C#N	No

----------
# assayProtocol: Clearance in rhesus monkey at 5 mg/kg, po
# Type: ADME, organism-based, Macaca mulatta
# Design: dose 5 mg/kg, route oral
# testSettings: in vivo

compound	CL/F / mL/min/kg
CC(C)(F)C[C@H](N[C@@H](c1ccc(-c2ccc(S(C)(=O)=O)cc2)cc1)C(F)(F)F)C(=O)NC1(C#N)CC1 [ODANACATIB]	6.1

----------
# measurementTarget: Procathepsin L (Homo sapiens)
# assayProtocol: Inhibition of cathepsin L in human HepG2 cells
# Format: cell-based
pIC50: −log10 of the molar value.

compound	pIC50
CC(C)(F)C[C@H](N[C@@H](c1ccc(-c2ccc(S(C)(=O)=O)cc2)cc1)C(F)(F)F)C(=O)NC1(C#N)CC1 [ODANACATIB]	5.31

----------
Target protein (sequence): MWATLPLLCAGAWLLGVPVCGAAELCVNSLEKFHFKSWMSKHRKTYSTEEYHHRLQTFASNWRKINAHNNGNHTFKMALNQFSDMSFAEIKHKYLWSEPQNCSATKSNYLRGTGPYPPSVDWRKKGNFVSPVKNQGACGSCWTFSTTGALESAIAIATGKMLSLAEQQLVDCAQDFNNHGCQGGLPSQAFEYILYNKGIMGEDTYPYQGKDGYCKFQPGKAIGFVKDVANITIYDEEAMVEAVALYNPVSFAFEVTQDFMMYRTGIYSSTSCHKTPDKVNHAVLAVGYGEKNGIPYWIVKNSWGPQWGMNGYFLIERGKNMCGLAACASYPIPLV
pIC50: −log10 of the molar value.

compound	pIC50
CC(C)(F)C[C@H](N[C@@H](c1ccc(-c2ccc(S(C)(=O)=O)cc2)cc1)C(F)(F)F)C(=O)NC1(C#N)CC1 [ODANACATIB]	< 5.00

----------
# measurementTarget: Cathepsin B (Homo sapiens)
# assayProtocol: Inhibition of cathepsin B in human HepG2 cells
# Format: cell-based
Below, each entry is listed alongside its reported IC50.
propertyMeasured: IC50 (nM)

compoundStructure	measurementTarget	experimentalResult
CC(C)C[C@H](NC(=O)c1cc2ccccc2o1)C(=O)N[C@H]1CC[C@@H](C)N(S(=O)(=O)c2ccccn2)CC1=O	Cathepsin B (Homo sapiens)	14
CC(C)(F)C[C@H](N[C@@H](c1ccc(-c2ccc(S(C)(=O)=O)cc2)cc1)C(F)(F)F)C(=O)NC1(C#N)CC1	Cathepsin B (Homo sapiens)	1050

----------
# measurementTarget: Procathepsin L (Homo sapiens, UniProt P07711)
# Sequence (P07711 whole entry): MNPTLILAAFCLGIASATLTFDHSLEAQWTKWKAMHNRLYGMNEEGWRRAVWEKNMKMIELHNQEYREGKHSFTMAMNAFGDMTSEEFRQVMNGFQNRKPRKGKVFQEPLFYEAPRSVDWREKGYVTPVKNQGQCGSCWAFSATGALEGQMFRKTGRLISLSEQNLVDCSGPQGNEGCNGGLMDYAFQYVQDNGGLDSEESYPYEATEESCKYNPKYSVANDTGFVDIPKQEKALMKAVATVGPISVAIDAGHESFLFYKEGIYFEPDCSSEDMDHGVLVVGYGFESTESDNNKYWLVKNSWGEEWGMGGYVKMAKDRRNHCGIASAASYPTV
# assayProtocol: Inhibition of cathepsin L
Below, each entry is listed alongside its reported IC50.
propertyMeasured: IC50 (µM)

compound	propertyMeasured	measurementUnits	boundSign	experimentalResult
CC(C)C[C@H](N[C@@H](c1ccc(-c2ccc(S(C)(=O)=O)cc2)cc1)C(F)(F)F)C(=O)N[C@@H](C#N)Cc1ccccc1	IC50	µM	=	2.94
CC(C)C[C@H](N[C@@H](c1ccc(-c2ccc(S(C)(=O)=O)cc2)cc1)C(F)(F)F)C(=O)N[C@@H](C)C#N	IC50	µM	=	3.39
CC(C)C[C@H](N[C@@H](c1ccc(-c2ccc(S(C)(=O)=O)cc2)cc1)C(F)(F)F)C(=O)N[C@H](C#N)Cc1ccccc1	IC50	µM	=	0.067
CC(C)C[C@H](N[C@@H](c1ccc(-c2ccc(S(C)(=O)=O)cc2)cc1)C(F)(F)F)C(=O)NC(C)(C)C#N	IC50	µM	>	10
CC(C)(F)C[C@H](N[C@@H](c1ccc(-c2ccc(S(C)(=O)=O)cc2)cc1)C(F)(F)F)C(=O)NC1(C#N)CC1 [ODANACATIB]	IC50	µM	=	3
CC(C)C[C@H](N[C@@H](c1ccc(-c2ccc(S(C)(=O)=O)cc2)cc1)C(F)(F)F)C(=O)NC(C#N)c1ccccc1 (mixture of isomers)	IC50	µM	=	0.667
